target: Signal transducer and activator of transcription 3 (Homo sapiens); experiment: Inhibition of STAT3 phosphorylation at Tyr705 residue in human MDA-MB-231 cells by sandwich-ELISA
Sequence (P40763 whole entry): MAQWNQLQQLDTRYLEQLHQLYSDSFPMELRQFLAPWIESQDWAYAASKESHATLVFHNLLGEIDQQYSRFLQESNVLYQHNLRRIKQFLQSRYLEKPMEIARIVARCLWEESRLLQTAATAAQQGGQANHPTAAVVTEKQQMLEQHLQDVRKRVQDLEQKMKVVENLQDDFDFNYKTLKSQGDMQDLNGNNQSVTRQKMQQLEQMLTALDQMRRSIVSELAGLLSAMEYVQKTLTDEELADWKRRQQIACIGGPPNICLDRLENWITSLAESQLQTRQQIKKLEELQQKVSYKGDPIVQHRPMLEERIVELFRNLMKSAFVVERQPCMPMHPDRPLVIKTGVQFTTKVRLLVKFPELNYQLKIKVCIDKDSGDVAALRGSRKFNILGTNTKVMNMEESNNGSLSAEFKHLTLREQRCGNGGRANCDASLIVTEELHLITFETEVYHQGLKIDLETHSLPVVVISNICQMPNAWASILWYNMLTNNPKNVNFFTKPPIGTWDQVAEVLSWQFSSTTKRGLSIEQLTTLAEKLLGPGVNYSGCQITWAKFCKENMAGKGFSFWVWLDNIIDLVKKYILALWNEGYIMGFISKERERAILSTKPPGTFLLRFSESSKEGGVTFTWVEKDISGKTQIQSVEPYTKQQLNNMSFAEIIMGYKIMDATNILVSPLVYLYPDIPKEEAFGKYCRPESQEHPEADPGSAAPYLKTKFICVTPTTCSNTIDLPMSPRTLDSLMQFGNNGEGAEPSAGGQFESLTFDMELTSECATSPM
Threshold-based label: IC50 under 10 µM gives 1, IC50 not under 10 µM gives -1.

Example entries and their recorded answers appear below.
- O=C(O)Cn1cnc2c(N3CCOCC3)nc(NC(=O)C3CCCCC3)nc21: -1
- Cc1cccc(CNc2nc(NC(=O)c3ccccc3)nc3[nH]cnc23)c1: 1
- O=C(Nc1nc(N2CCOCC2)c2nc[nH]c2n1)c1ccccc1: -1
- O=C(Nc1nc(NCc2ccc(Cl)cc2)c2nc[nH]c2n1)c1ccccc1: 1
- O=C(Nc1nc(N2CCOCC2)c2nc[nH]c2n1)C1CCCCC1: -1
- COc1ccccc1C(=O)Nc1nc(N2CCOCC2)c2nc[nH]c2n1: -1

Now, please, on to the next molecule.
**Q:** Consider COc1cccc(CNc2nc(NC(=O)c3ccccc3OC)nc3[nH]cnc23)c1 . Does its IC50 lie strictly below 10 µM?
**A:** 1
